Measured Kd values are reported for all entries that follow.
Biological target: T1, Human TREM2 extracellular domain (ECD), residues 19-131, C-terminally biotinylated, deglycosylated (human, UniProt Q9NZC2 19-131, C-terminally biotinylated; deglycosylated)
T1 construct: range 19-131; loaded on Superstreptavidin biosensors; also called triggering receptor expressed on myeloid cells 2; Human BLI (deglycosylated)
T1 sequence (looked up): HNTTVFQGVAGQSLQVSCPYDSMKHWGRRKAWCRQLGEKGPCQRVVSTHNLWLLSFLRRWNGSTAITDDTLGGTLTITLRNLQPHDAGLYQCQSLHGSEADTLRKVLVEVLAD
Assay: BLI steady state, deglycosylated human TREM2 ECD on sensor
*1 amine or outer side, *2 acyl side, *3 side chain or, on linkers, in order; H or OH if unused. Bridges are numbered along the chain shown (N, C = ends). Where no end group is shown, it is not given here. [ ]: non-standard residue; d: D form. The star is where a group is joined. TATA = O=C(CC[*:1])N1CN(C(=O)CC[*:2])CN(C(=O)CC[*:3])C1; Phe(2-Me) = Cc1ccccc1C[C@H](N)C(=O)O; Pent4ynoyl = C#CCCC(=O)*
Record the value in nM, omitting the unit from your answer.

Ac-CSEYCFWPLYHC (linker 1-5-12 via TATA) [BCY20070]: 1660
ACTNYCFWPFQYCA (linker 2-6-13 via TATA) [BCY19779]: 920
Ac-CSEYCYWPFYHC (linker 1-5-12 via TATA) [BCY20566]: 2140
Ac-CSEYCFWPFQYC (linker 1-5-12 via TATA) [BCY20220]: 1300
CSEYCFXPFYHC (N-terminal acetyl (Ac); CiSEYCiiF[Trp(Me)]PFYHCiii; Ci, Cii, Ciii on TATA scaffold) [BCY20059]: 1810
ACTNYCFWPFYSCA (linker 2-6-13 via TATA) [BCY19781]: 1400
Ac-CSEYCF[Phe(2-Me)]PFYHC (linker 1-5-12 via TATA) [BCY20063]: 1300
CSEYCFWPXYHC (N-terminal acetyl (Ac); CiSEYCiiFWP[4FPhe]YHCiii; Ci, Cii, Ciii on TATA scaffold) [BCY20073]: 2320
CSEYCXWPFYHC (N-terminal acetyl (Ac); CiSEYCii[4Pal]WPFYHCiii; Ci, Cii, Ciii on TATA scaffold) [BCY20567]: 1020
CSEYCXWPFYHC (N-terminal acetyl (Ac); CiSEYCii[3FPhe]WPFYHCiii; Ci, Cii, Ciii on TATA scaffold) [BCY20052]: 4880

Looking for the measured Kd of ACTNYCFWPFAVCA (linker 2-6-13 via TATA) [BCY19783] , can you help? 2700

Looking for the measured Kd of Ac-CSEYCFWPFEHC (linker 1-5-12 via TATA) [BCY20571] , can you help? 2210

Looking for the measured Kd of Ac-CSEYCFWPK(Pent4ynoyl)YHC (linker 1-5-12 via TATA) [BCY20101] , can you help? 18600

Looking for the measured Kd of Ac-CSEYCFWPFYPC (linker 1-5-12 via TATA) [BCY20082] , can you help? 1930
